Please go through the items and note down their GI50.
- Tested on: TK-10 renal
- measurement.notes: NCI tumour cell line growth inhibition, 48 h

Solved cases below.
In: Recall and state the measured GI50 for COc1ccc2c(c1)c(-c1ccc(-c3cn(C)c4ccc(OC)cc34)s1)cn2C .
Out: > 100 µM

In: Recall and state the measured GI50 for COc1cccc2c1C(=O)c1c(O)c3c(c(O)c1C2=O)C[C@@](O)(/C(C)=N/NC(=O)c1cccc([N+](=O)[O-])c1)C[C@@H]3OC1CC(N)C(O)C(C)O1 (some centres not stated) .
Out: 0.896 µM

In: Recall and state the measured GI50 for CCCCCCCCCCCC1=NC(C)(C)CN1C(C)C .
Out: 4.02 µM

In: Recall and state the measured GI50 for O=c1c2ccccc2c(=O)n2n1-c1cccc(c1)CSSCc1cccc-2c1 .
Out: > 100 µM

In: Recall and state the measured GI50 for Clc1ccc2c(NC3CCC(NC4CCCCC4)CC3)ccnc2c1 (configuration not stated) .
Out: 2.13 µM

Required: GI50, one value per compound below.
1. COc1ccc2c(c1[N+](=O)[O-])CC[C@@H]1[C@@H]2CC[C@]2(C)C(=O)CC[C@@H]12
2. CN1CCC2(CC1)C(=O)Nc1cc(NC(=O)c3ccc4c(c3)C[C@@H]3C(C)(C)[C@H](O)[C@H](F)C[C@@]3(C)O4)ccc12

Out:
1. 577 µM
2. 21.4 µM

* * *

- Test system: BT-549 breast
- measurement.notes: NCI tumour cell line growth inhibition, 48 h
parameter: TGI

Solved cases below.
In: Recall and state the measured TGI for COc1cccc2c1C(=O)c1c(O)c3c(c(O)c1C2=O)C[C@@](O)(/C(C)=N/NC(=O)c1cccc([N+](=O)[O-])c1)C[C@@H]3OC1CC(N)C(O)C(C)O1 (some centres not stated) .
Out: 4.43 µM

In: Recall and state the measured TGI for COc1ccc2c(c1)c(-c1ccc(-c3cn(C)c4ccc(OC)cc34)s1)cn2C .
Out: > 100 µM

In: Recall and state the measured TGI for COc1ccc(CC(C)NCC(O)c2ccc(O)c(NC=O)c2)cc1 (configuration not stated) .
Out: > 100 µM

In: Recall and state the measured TGI for O=c1cc(-c2cccc(Cl)c2)[nH]c2cc3c(cc12)OCO3 .
Out: 17.1 µM

In: Recall and state the measured TGI for CCN(Cc1ccccc1)c1ccc(/C=C2\COc3ccccc3C2=O)cc1 .
Out: > 1000 µM

In: Recall and state the measured TGI for C/C(=C1\C(=O)Nc2ccccc21)c1cccc(/C(C)=C2/C(=O)Nc3ccccc32)n1 .
Out: 36.5 µM

Consider the record given below.
In: Recall and state the measured TGI for N#CSc1c[nH]c2ccc(/C=C/C(=O)/C=C(O)/C=C/c3ccc4[nH]cc(SC#N)c4c3)cc12 .
Out: 8.04 µM

* * *

- Tested on: MCF7 breast
- measurement.notes: NCI tumour cell line growth inhibition, 48 h; in the data active means GI50 below about 0.43 µM; inactive means the rest
Hello, when you answer, please use one of the following outcomes: active, inactive

In: Please share the test call associated with CCCCCCCCCCCC(c1ccccc1)[N+](C)(C)C (centres undefined) .
Out: inactive

In: Please share the test call associated with Clc1cccc(-c2cc(-c3ccc4c(c3)OCCO4)[nH]n2)c1 .
Out: inactive

In: Please share the test call associated with O=C(O)CN(CCN(CC(=O)O)CC(=O)O)CCN(CC(=O)O)CC(=O)O .
Out: inactive

In: Please share the test call associated with COc1ccc(-c2nc(-c3nc4cc(Cl)c(Cl)cc4[nH]3)c3ccccn23)cc1 .
Out: inactive

In: Please share the test call associated with CCCN1CCC(Oc2cc(Nc3nc(Nc4cccc(F)c4C(N)=O)c4cc[nH]c4n3)c(OC)cc2Cl)CC1 .
Out: inactive

---
In: Please share the test call associated with CCN(Cc1ccccc1)c1ccc(/C=C2\COc3ccccc3C2=O)cc1 .
Out: inactive

In: Please share the test call associated with COc1ccc2c(c1)c(-c1ccc(-c3cn(C)c4ccc(OC)cc34)s1)cn2C .
Out: inactive

In: Please share the test call associated with CN(C)CCN1C(=O)c2cccc3cc(N)cc(c23)C1=O .
Out: inactive

In: Please share the test call associated with CN1CCC2(CC1)C(=O)Nc1cc(NC(=O)c3ccc4c(c3)C[C@@H]3C(C)(C)[C@H](O)[C@H](F)C[C@@]3(C)O4)ccc12 .
Out: active

* * *

Please go through the items and note down their TGI.
- System: NCI-H23 lung
- measurement.notes: NCI tumour cell line growth inhibition, 48 h

Solved cases below.
In: Recall and state the measured TGI for CCCCCCCCCCCCCOCCOCCOCCCCC(O)CCCCCCCCCC1=C[C@H](C)OC1=O (stereo not given in full) .
Out: 60 µM

In: Recall and state the measured TGI for Cc1cc2c(cc1Cl)SSc1cc(Cl)c(C)cc1S(=O)(=O)Nc1nc(N)nn1C(O)n1nc(N)nc1NS2(=O)=O .
Out: > 10 µM

In: Recall and state the measured TGI for CCN(CC)CC(C(=O)Nc1c(C)cccc1C)/C(C)=N\NC(=S)NN (stereo not given) .
Out: > 100 µM

In: Recall and state the measured TGI for Cc1ccc(N=NC(=Nc2ccc(F)cc2)c2ccc(N(CCC#N)CCC#N)cc2)cc1 .
Out: > 100 µM

In: Recall and state the measured TGI for OC(c1ccccc1)c1c(-c2ccccc2)[nH]c(-c2ccccc2)c1C(O)c1ccccc1 (stereo not given) .
Out: 16.5 µM

In: Recall and state the measured TGI for CCN(CC)c1c(-c2c(OC(C)C)c(=O)c2=O)c(=O)n2ccsc2c1OC(C)=O .
Out: > 100 µM

Required: TGI, one value per molecule below.
1. O=C(O)C1CCCN1 (stereo not given)
2. CN(C)N1C(=C(C#N)C#N)C(c2ccccc2)CC1C#N (stereo not given)
3. COc1ccccc1C1C(C#N)=C(N)SC(N)=C1C#N

Out:
> 100 µM
> 100 µM
> 100 µM

Required: TGI, one value per molecule below.
1. Cc1ccc(S(=O)(=O)N(CC(O)COc2ccccc2)c2c(F)c(F)c(F)c(F)c2F)cc1 (stereo not given)
2. CCOC(=O)N1CCC2(CC1)C[C@](Sc1ccccc1)(C(C)=O)[C@H](C)O2
3. O=C1c2ccccc2C(=O)N1C/C=N/NS(=O)(=O)c1cccc([N+](=O)[O-])c1
4. O=C(c1ccccc1)c1nc2ccc(Cl)cc2cc1C(Br)Br

Out:
["29.6 µM", "> 100 µM", "> 100 µM", "1.11 µM"]

Required: TGI, one value per molecule below.
1. CCN(CC)C1=Nc2ccccc2-n2ccnc2C1
2. COc1ccc(OC)c([N+](=O)[O-])c1-c1nc2sc(Cl)cn2c1/C=N/N=C(N)N

Out:
1: > 100 µM; 2: 60.7 µM

* * *

- Test system: HCT-116 colon
- measurement.notes: NCI tumour cell line growth inhibition, 48 h
parameter: TGI

Solved cases below.
In: Report TGI from HCT-116 colon testing of O=C1c2ccccc2C(=O)N1C/C=N/NS(=O)(=O)c1cccc([N+](=O)[O-])c1
Out: > 100 µM

In: Report TGI from HCT-116 colon testing of COc1ccc(C(O)C(c2ccc(OCc3ccccc3)cc2)c2ccc(OCc3ccccc3)cc2)cc1 (stereo not drawn)
Out: > 100 µM

---
In: Report TGI from HCT-116 colon testing of Cc1cccc(-c2nc(=S)[nH][nH]2)c1
Out: > 100 µM

* * *

- System: SNB-19 CNS
- measurement.notes: NCI tumour cell line growth inhibition, 48 h
Please go through the items and note down their TGI.

In: Recall and state the measured TGI for Nc1nc(N)c2cc(S(=O)(=O)c3cccc(C(F)(F)F)c3)ccc2n1 .
Out: > 100 µM

In: Recall and state the measured TGI for COc1ccc(/C=C2\C(=O)N(C(=O)c3ccc(NC(C)=O)cc3)N=C2C)cc1OC .
Out: > 100 µM

In: Recall and state the measured TGI for COc1ccc(Nc2nc3ccccc3nc2-c2cccs2)cc1OC .
Out: > 10 µM

In: Recall and state the measured TGI for COc1ccc(C2c3cc4c(cc3OC(N3CCOCC3)C2C)OCO4)cc1OC (configuration not stated) .
Out: 77.6 µM

Required: TGI, one value per compound below.
1. C/C(=C1\C(=O)Nc2ccccc21)c1cccc(/C(C)=C2/C(=O)Nc3ccccc32)n1
2. Clc1ccc2c(NCCCCNc3nc(N4CCOCC4)nc4ccccc34)ccnc2c1
3. C#CCOC(=O)C=[N+]=[N-]
4. COc1ccccc1C1C(C#N)=C(N)SC(N)=C1C#N

Out:
1. > 100 µM
2. 12.6 µM
3. > 10 µM
4. > 100 µM

Required: TGI, one value per compound below.
1. N#CSc1c[nH]c2ccc(/C=C/C(=O)/C=C(O)/C=C/c3ccc4[nH]cc(SC#N)c4c3)cc12
2. O=C1c2cccnc2S(=O)(=O)N1c1ccc(Br)cc1
3. Cc1c2ccccc2c(/C=N/NC(=O)CSCC(=O)N/N=C/c2c3ccccc3c(C)c3ccccc23)c2ccccc12
4. C[C@]12CCC(=O)C=C1CC[C@@H]1[C@@H]2CC[C@]2(C)C(=O)/C(=C/c3ccc([N+](=O)[O-])cc3)C[C@@H]12

Out:
15.5 µM
> 100 µM
> 100 µM
> 100 µM

Required: TGI, one value per compound below.
1. [Cu].c1ccc2c(c1)C1=NC2=NC2=NC(=NC3=NC(=NC4=NC(=N1)c1ccccc14)c1ccccc13)c1ccccc12
2. CN1CCN(c2n[nH]c(=O)c3c2nnn3Cc2ccccc2)CC1
3. C/C(=N/NC(=S)N1CCCCCC1)c1cccc(/C(C)=N\NC(=S)N2CCCCCC2)n1
4. CC(C)C(Sc1nc(-c2ccccc2)c(-c2ccccc2)[nH]1)C(=O)N/N=C/c1ccc(Cl)cc1 (configuration not stated)

Out:
1: > 100 µM; 2: > 100 µM; 3: 9.43 µM; 4: > 100 µM

In: Recall and state the measured TGI for CN1CCC2(CC1)C(=O)Nc1cc(NC(=O)c3ccc4c(c3)C[C@@H]3C(C)(C)[C@H](O)[C@H](F)C[C@@]3(C)O4)ccc12 .
Out: 22 µM

Attribution: PubChem BioAssay (NCI)
